target: T1, human CD3 epsilon/delta heterodimer, biotin labeled (human, UniProt P04234 22-105, biotin labeled); test: SPR, biotinylated CD3e/d on SA chip;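 note: analytes injected over immobilized CD3 heterodimer, association 60-120 s and dissociation 120-420 s, rate and affinity constants obtained by fitting sensorgrams to a 1:1 binding model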
T1 construct: bought (Acro Biosystems); also called Human CD3e/d
For each of the binders below, state its koff.
Numbers only, in s⁻¹.

1. ULBP2xCD3 bispecific CD58 fusion containing CD3 variant CD3-A2 (bispecific antibody, V domains shown) VH: EVQLLESGGGLVQPGGSLKLSCAASGFTFNTYAMNWVRKAPGKGLEWVARIRSKYNNYATYYADSVKDRFTISRDDSKNTAYLQMNNLKTEDTAVYYCVRHGNFGNSYVSWFAYWGQGTLVTVSS VL: ELVVTQEPSLTVSPGGTVTLTCRSSTGAVTTSNYANWVQDKPGQAPRGLIGDTNKRAPGTPARFSGSLLGGKAALTLSGVQPEDEAEYYCALWYSNLWVFGGGTKLTVL ... 0.0263

# batch: return koff for each of the 2 binders below
1. ULBP2xCD3 bispecific CD58 fusion containing CD3 variant CD3-A8 (bispecific antibody, V domains shown) VH: EVQLLESGGGLVQPGGSLKLSCAASGFTFNTYAMNWVRKAPGKGLEWVAKIRSKYNNYATYYADSVKDRFTISRDDSKNTAYLQMNNLKTEDTAVYYCVRHGNFGDSYVSWFAYWGQGTLVTVSS VL: ELVVTQEPSLTVSPGGTVTLTCRSSTGAVTTSNYANWVQDKPGQAPRGLIGGTNKRAPGTPARFSGSLLGGKAALTLSGVQPEDEAEYYCALWYSQLWVFGGGTKLTVL
2. ULBP2xCD3 bispecific CD58 fusion containing CD3 variant CD3-A9 (bispecific antibody, V domains shown) VH: EVQLLESGGGLVQPGGSLKLSCAASGFTFNTYAMNWVRKAPGKGLEWVARIRSKYNNYATYYADSVKDRFTISRDDSKNTAYLQMNNLKTEDTAVYYCVRHGSFGNSYVSWFAYWGQGTLVTVSS VL: ELVVTQEPSLTVSPGGTVTLTCRSSTGAVTTSNYANWVQDKPGQAPRGLIGGTNKRAPGTPARFSGSLLGGKAALTLSGVQPEDEAEYYCALWYSQLWVFGGGTKLTVL

Data returned:
0.0635
0.101
